Assay: protein stability index of a GFP-peptide fusion (yeast GPS) (PSI 1-4); higher = more stable; sorted into four equal gates, so the index is relative within each strain
Conditions: doa10∆
For each entry below, report its protein stability index value.

Incoming: Name the recorded protein stability index for SANGYLNATTAMDLAQM [BRR2] .
Outgoing: 3.23

Incoming: Name the recorded protein stability index for GKEFGDVSVKMGNTKVH [RRP45] .
Outgoing: 1.38

Incoming: Name the recorded protein stability index for DDIINNDEPSHKKIKVA [SIR2] .
Outgoing: 2.77

Incoming: Name the recorded protein stability index for KKICNHPFVFEEVEDQI [SNF2] .
Outgoing: 3.17

Incoming: Name the recorded protein stability index for GNMGITTEMLDKLMVTS [MED6] .
Outgoing: 3.36
